Provenance of the data: ChEMBL document CHEMBL4007422

Assay: Protein binding in rat plasma at 1 uM after 6 hrs by LC-MS/MS based rapid equilibrium dialysis method
Type: ADME, cell-free
Settings: read-out: PPB
Measure name: fraction unbound at 6 h, 1 µM
Numbers only.

fraction unbound at 6 h, 1 µM measured on COc1ccc2c(c1)c(CN1CCN(C)CC1)cn2S(=O)(=O)c1ccccc1Br.CS(=O)(=O)O.O = 0.01

---

Target: D(3) dopamine receptor (Rattus norvegicus)
Sequence (P19020 whole entry): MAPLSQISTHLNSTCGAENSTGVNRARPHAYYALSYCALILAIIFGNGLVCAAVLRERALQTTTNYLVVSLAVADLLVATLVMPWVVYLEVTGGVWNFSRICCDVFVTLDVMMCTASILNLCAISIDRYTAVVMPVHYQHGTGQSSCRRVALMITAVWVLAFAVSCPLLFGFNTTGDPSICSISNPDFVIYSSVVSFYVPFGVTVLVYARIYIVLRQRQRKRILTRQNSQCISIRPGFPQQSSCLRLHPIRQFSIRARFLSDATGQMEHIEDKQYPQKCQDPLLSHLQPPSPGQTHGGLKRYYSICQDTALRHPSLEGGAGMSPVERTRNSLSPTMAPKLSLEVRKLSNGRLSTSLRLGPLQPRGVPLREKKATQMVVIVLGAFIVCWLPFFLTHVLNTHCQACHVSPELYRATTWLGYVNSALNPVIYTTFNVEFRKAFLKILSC
Experiment: Displacement of [3H] 7-OH DPAT from recombinant rat dopamine D3 receptor expressed in CHO cells after 60 mins
Format: cell-based
Measure name: Ki (nM)
Numbers only, in nM.

Ki measured on COc1ccc2c(c1)c(CN1CCN(C)CC1)cn2S(=O)(=O)c1ccccc1Br.CS(=O)(=O)O.O = 616
